Molecular target: GLP-1R (Homo sapiens, UniProt P43220)
Sequence (P43220 24-463): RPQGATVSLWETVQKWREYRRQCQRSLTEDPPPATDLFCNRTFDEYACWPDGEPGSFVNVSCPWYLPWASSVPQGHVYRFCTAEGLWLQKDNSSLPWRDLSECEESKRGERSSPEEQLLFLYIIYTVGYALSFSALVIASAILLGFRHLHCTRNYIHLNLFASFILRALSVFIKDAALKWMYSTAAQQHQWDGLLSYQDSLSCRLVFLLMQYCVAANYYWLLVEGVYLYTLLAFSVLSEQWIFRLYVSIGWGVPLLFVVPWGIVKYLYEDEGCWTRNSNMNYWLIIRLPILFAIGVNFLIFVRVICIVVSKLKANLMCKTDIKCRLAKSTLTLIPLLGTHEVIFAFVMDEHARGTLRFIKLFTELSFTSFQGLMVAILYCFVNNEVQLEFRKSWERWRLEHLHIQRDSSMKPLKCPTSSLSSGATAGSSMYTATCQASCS
Test: GLP-1R activation: cAMP increase in CHO cells stably expressing GLP-1R
Assay type: cell-based
Settings: cAMP increase, CHO cells stably expressing GLP-1R, 10 point dose response, 30 minutes incubation; read-out: EC50
# EC50 listing for each entry below

{"columns": ["compound", "reading unit", "EC50"],
 "data": [
  ["COCCn1c(Cc2ccc(-c3cccc(OCc4ccc(C#N)cc4F)n3)cc2C#Cc2cncnc2)nc2ccc(C(=O)O)cc21 [Example 254]", "µM", 0.0686],
  ["CC1(C)CC(Cn2c(Cc3ccc(-c4cccc(OCc5ccc(C#N)cc5F)n4)cc3F)nc3ccc(C(=O)O)cc32)O1 (single isomer, unassigned) [Example 905]", "µM", 0.0309],
  ["COCCn1c(Cc2cnc(-c3cccc(OCc4ccc(C#N)cc4F)n3)c(F)c2)nc2ccc(C(=O)O)cc21 [Example 855]", "µM", 0.0126],
  ["COCCn1c(Cc2cc(F)c(-c3ccc(F)c(NCc4ccc(C#N)cc4F)n3)cc2F)nc2ccc(C(=O)O)cc21 [Example 164]", "µM", 0.0329],
  ["N#CCC1(Cn2c(Cc3cc(F)c(-c4ccnc(OCc5ccc(C#N)cc5F)n4)cc3F)nc3ccc(C(=O)O)nc32)CC1 [Example 400]", "µM", 0.00047],
  ["COCCn1c(Cc2ccc(-c3cccc(OCc4ccccc4NC(=O)OC(C)(C)C)n3)cc2F)nc2ccc(C(=O)O)cc21 [Example 506]", "µM", 2.18],
  ["COCCn1c(C2CCOc3cc(-c4cccc(OCc5ccc(C#N)cc5F)n4)ccc32)nc2ccc(C(=O)O)cc21 (stereo not shown) [Example 41]", "µM", 1.46],
  ["N#Cc1ccc(COc2cccc(-c3ccc(Cc4nc5ccc(C(=O)O)cc5n4CC4(Br)CC4)c(F)c3)n2)c(F)c1 [Example 289]", "µM", 0.00302],
  ["N#Cc1ccc(COc2cccc(-c3cc(F)c(Cc4nc5ccc(C(=O)O)cc5n4Cc4ncco4)cc3F)n2)c(F)c1 [Example 605]", "µM", 0.00157],
  ["N#CCC1(Cn2c(Cc3cc(F)c(-c4cccc(OCc5ccc(C#N)cc5F)n4)cc3F)nc3ccc(C(=O)O)cc32)CC1 [Example 428]", "µM", 0.00013],
  ["COCCn1c(Cc2cc(F)c(-c3cccc(OCc4ccc(C#N)cc4F)n3)cc2F)nc2cc(C)c(C(=O)O)cc21 [Example 926]", "µM", 0.0118],
  ["COC[C@H](CF)n1c(Cc2cc(F)c(-c3cccc(OCc4ccc(C#N)cc4F)n3)cc2F)nc2ccc(C(=O)O)cc21 [Example 727]", "µM", 0.0463],
  ["CO[C@H]1C[C@H](Cn2c(Cc3cc(F)c(-c4cccc(OCc5ccc(C#N)cc5F)n4)cc3F)nc3ccc(C(=O)O)cc32)C1 [Example 745]", "µM", 0.0835]
]}

----------
Target: GLP-1R (Homo sapiens, UniProt P43220)
Assay: GLP-1R activation: cAMP increase in CHO cells stably expressing GLP-1R
Type: cell-based
Conditions: cAMP increase, CHO cells stably expressing GLP-1R, 10 point dose response, 30 minutes incubation; read-out: EC50
pEC50: −log10 of the molar value.

{"columns": ["compound", "pEC50"],
 "data": [
  ["N#Cc1ccc(COc2cccc(-c3ccc(Cc4nc5ccc(C(=O)O)nc5n4CC4(CF)CC4)c(F)c3)n2)c(F)c1 [Example 355]", 9.01],
  ["N#Cc1ccc(COc2cccc(-c3cc(F)c(Cc4nc5ccc(C(=O)O)cc5n4C[C@@H]4COCCO4)cc3F)n2)c(F)c1 [Example 642]", 8.29],
  ["COCCn1c(Cc2ccc(-c3cccc(OCc4ccc(C#N)cc4F)n3)cc2O)nc2ccc(C(=O)O)cc21 [Example 181]", 7.81],
  ["N#Cc1cc(F)c(COc2nccc(-c3ccc(Cc4nc5ccc(C(=O)O)cc5n4C[C@@H]4CCO4)cc3F)n2)cc1F [Example 789]", 8.93]
]}

Data origin: patent US11702404B2
